# System: intact epimastigotes of T. cruzi
# ASSAY COMMENT: Oxygen consumption inhibition analysis (high-resolution respirometry)
# Assay type: cell-based, Trypanosoma cruzi
# MEASUREMENT CONTEXT: compound at ½ IC50, n = 4
# Protocol: Intact epimastigotes were collected by centrifugation, washed twice in PBS, and resuspended with respiration buffer containing 125 mM sucrose, 65 mM KCL, 10 mM Tris-HCl (pH 7.2), 1 mM […], and 2.5 mM K2PO4. They were then added to a final concentration of 25 × 10^6 cells/mL. To evaluate the effect of the different drugs on mitochondrial function, we measured mitochondrial respiration in the cells before and after the addition of increasing volumes of the compounds. […]
# Oxygen Uptake (pmol/sec/Million Cells) per record follows
The reply should contain only the number, in pmol/sec/Million Cells.

- MOLECULE: "CCc1c(-c2ccc[nH]2)[nH]c(/C=N/c2ccc(C(C)(C)C)cc2)c1C [MM4]"
  ENDPOINT RESULT: 2.62
- MOLECULE: "CCCCCC1=C/C(=C/c2[nH]c(-c3ccc[nH]3)cc2OC)N=C1C [Synthetic prodigiosin, prodigiosin]"
  ENDPOINT RESULT: 2.33
- MOLECULE: "CCc1c(-c2ccc[nH]2)[nH]c(/C=N/C2CCCCC2)c1C [MM3]"
  ENDPOINT RESULT: 1.58

Query: GET /values?readout=Oxygen Uptake (pmol/sec/Million Cells)&system=intact epimastigotes of T. cruzi&item= CCCCCC1=C/C(=C/c2[nH]c(-c3ccc[nH]3)cc2OC)N=C1C [Natural prodigiosin, prodigiosin]
Response: 0.73

Query: Request: Oxygen Uptake (pmol/sec/Million Cells), test system intact epimastigotes of T. cruzi, entry COC1=CC(c2cc3ccccc3[nH]2)=N/C1=C\c1[nH]c(C)cc1C [Obatoclax, reference compound]
Response: 2.69
